- TARGET: T1, 4H2774-AA
- T1 chain: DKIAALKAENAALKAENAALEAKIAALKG
- EXPERIMENT_NOTES: two-hybrid library CCmax;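 also: natural log of median RNA to DNA barcode read ratio; higher means stronger binding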
- CONDITION_NOTES: mean of both orientations
Catalogue of interaction score readings, one per entry.
VALUE_TYPE: interaction score

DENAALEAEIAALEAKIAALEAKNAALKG [4H1064-AA]: -1.39
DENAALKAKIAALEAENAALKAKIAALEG [4H1821-AA]: -1.53
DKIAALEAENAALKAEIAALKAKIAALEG [4H2253-AA]: -0.645
DKIAALEAENAALEAKIAALKAENAALEG [4H2219-AA]: -0.727
DKIAALKAENAALEAKIAALKAENAALKG [4H2732-AA]: -1.29
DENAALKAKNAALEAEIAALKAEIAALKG [4H1930-AA]: -1.57
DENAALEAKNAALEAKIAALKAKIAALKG [4H1454-AA]: -1.09
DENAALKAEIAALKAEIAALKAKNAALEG [4H1615-AA]: -1.47
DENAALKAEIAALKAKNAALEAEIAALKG [4H1650-AA]: -1.48
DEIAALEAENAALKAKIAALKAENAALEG [4H235-AA]: 1.48
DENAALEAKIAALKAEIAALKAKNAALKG [4H1360-AA]: -1.2
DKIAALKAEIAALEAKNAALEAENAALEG [4H2611-AA]: -1.54
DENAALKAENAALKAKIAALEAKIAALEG [4H1765-AA]: -1.4
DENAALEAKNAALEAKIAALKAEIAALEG [4H1449-AA]: -1.47
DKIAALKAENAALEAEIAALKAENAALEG [4H2699-AA]: -1.26
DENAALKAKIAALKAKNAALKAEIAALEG [4H1913-AA]: -0.0687
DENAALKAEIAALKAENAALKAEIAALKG [4H1626-AA]: -1.46
